Biological target: T1, human CD117 ectodomain (human, UniProt P10721 26-524, biotinylated (BirA co-expression) where captured on streptavidin biosensors)
T1 construct: extracellular domain; also called cKIT; full length AviTagged CD117 ectodomain; not shown: C-terminal AviTag or His tag
T1 sequence (P10721 26-524): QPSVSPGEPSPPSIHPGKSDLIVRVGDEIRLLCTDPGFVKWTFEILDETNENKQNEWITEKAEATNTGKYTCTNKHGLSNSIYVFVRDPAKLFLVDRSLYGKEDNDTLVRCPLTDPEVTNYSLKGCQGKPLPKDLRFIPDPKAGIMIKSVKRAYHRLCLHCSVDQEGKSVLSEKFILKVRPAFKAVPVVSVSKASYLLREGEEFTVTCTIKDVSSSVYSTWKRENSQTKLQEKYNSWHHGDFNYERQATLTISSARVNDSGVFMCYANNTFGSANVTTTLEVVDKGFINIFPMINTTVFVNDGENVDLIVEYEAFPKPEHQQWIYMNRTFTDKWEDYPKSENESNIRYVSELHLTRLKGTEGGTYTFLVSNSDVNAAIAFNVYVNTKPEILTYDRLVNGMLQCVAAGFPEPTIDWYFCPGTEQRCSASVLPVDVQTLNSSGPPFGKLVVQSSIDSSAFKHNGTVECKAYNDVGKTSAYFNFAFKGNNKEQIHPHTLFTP
Test: BLI (Octet), biotinylated ectodomain on SA biosensor, 1:1 global fit, bivalent Fc
QUANTITY MEASURED: Kd (pM)
Give the quantity in pM, number only.

Here are 2 binders together with their reported answers.
P-0060 (Fc fusion, also called P60; bivalent form of P27; not shown: Fc fragment) EVQLVESGGGLVRAGGSLRLSCAASGRTTFSTYWLGWFRQAPGKNREFVAAISWSAGMAYYQDSKGRFTISRDNTKNTAYLQMNSLQPEDTAVYYCAAGRFHPIRVDTALYWAQGTQVTVSS	240
P-0054 (Fc fusion, also called P54; bivalent form of P29; not shown: Fc fragment) QVHLVESGGGLVQAGGSLGLSCAASGHTFSNYAMGWFRQAPGKEREFVAAISWSGGSTLYADSVKGRFTISRDNGENTVYLQMNSLKPEDTAVYYCALDSTGVYGTGYVSSRKGRYEYWGQGTLVTVSS	6.82

IN: Quick one: Kd for P-0072 (Fc fusion, also called P72; bivalent form of P38; not shown: Fc fragment) EVQLVESGGGLVQAGGSLRLSCAASGRTSGSYVMGWFRQAPGKEREFVAAISWSAGMTYYADSVKGRFTISRDNAKNTVYLQMNSLKPEDTAVYYCAADQRGVPAYYSDYALYDYWGQGTQVTVSS ?
OUT: 1.26

IN: Request the reported Kd associated with P-0055 (Fc fusion, also called P55; bivalent form of P31; not shown: Fc fragment) EVQLVESGGGLVRAGGSLRLSCAASGRTFTYDARAWFRQAPGKEREFVAAISWSGGSTYYPNSMKGRFTISRDNAKNTVYLQMNSLKPEDTAVYYCAADESFPAYYSDYALYRYWGQGTLVTVSS
OUT: 1.24

IN: Which Kd value belongs to P-0059 (Fc fusion, also called P59; bivalent form of P12; not shown: Fc fragment) QVQLVESGGGLVQAGGSLRLSCTASGDTFSSYSMGWFRQGPGKEREFVGGIRWSGGTTYYADSVKGRFTISRDNAKNTVYLQMNSLKREDTAVYYCAAVRRRWLIWQEEEYDYWGQGTLVTVSS ?
OUT: 44.6

IN: Give its Kd value. Item: P-0057 (Fc fusion, the alignment instead labels 'P35/P57' and 'P32/P56'; also called P57; not shown: Fc fragment) QVQLVESGGGLVQAGDSLRLSCAASGRTFSSYAMGWFRQAPGKEREFVASITSSGLVAYYGDSVEARFTISRDNAKNTVYLQMDSLKPEDTAVYYCAARQYVGSGSYYLKKEGGYEYWGPGTQVTVSS
OUT: 2.15

IN: Form field: reported Kd of P-0056 (Fc fusion, the alignment instead labels 'P35/P57' and 'P32/P56'; also called P56; not shown: Fc fragment) QVQLVESGGGLVQAGGSLRLSCAASGGTFSIYPVGWFRQAPGKQREFVAAIGWSASGTYYGDSVEGRFTVSRDNARSTVYLRMSSLKPDDTAVYYCAAASGSNWRLGAIDEYDSWGQGTQVTVSS
OUT: 602

IN: Reported Kd for P-0058 (Fc fusion, also called P58; bivalent form of P37; not shown: Fc fragment) QVQLVESGGGLVQAGDSLRLSCAVSGRTLSNYFMAWLRQAPGKEREFVAAIHWSLGSTYYQDPVKGRFTISRDKAKNTVYLQMNTLKPEDTATYICAAGQHLSGLGGSAWSIEGDYWGQGTQVTVSS : what is it?
OUT: 1.89
